# System: E. coli (ATCC 25922)
# experimentNotes: Sensitization to erythromycin, E. coli (ATCC 25922)
# Format: cell-based, Escherichia coli
# testContext: Table 5; E. coli (ATCC 25922)
quantityName: MIC: concentration required to lower the MIC of erythromycin from 60 μg/mL to 1 μg/mL (µg/mL)
The reply should contain only the number, in µg/mL.

C[C@H](CCCN(C)Cc1ccccc1)[C@H]1CC[C@H]2[C@@H]3[C@H](OCCN)C[C@@H]4C[C@H](OCCN)CC[C@]4(C)[C@H]3C[C@H](OCCN)[C@]12C    2

What value of measured MIC: concentration required to lower the MIC of erythromycin from 60 μg/mL to 1 μg/mL is listed for C[C@H](CCCN(C)Cc1ccccc1)[C@H]1CC[C@H]2[C@@H]3[C@H](OCCCN)C[C@@H]4C[C@H](OCCCN)CC[C@]4(C)[C@H]3C[C@H](OCCCN)[C@]12C ?
1

Let us now turn to C[C@H](CCCN(C)Cc1ccccc1)[C@H]1CC[C@H]2[C@@H]3[C@H](OCCNC(=N)N)C[C@@H]4C[C@H](OCCNC(=N)N)CC[C@]4(C)[C@H]3C[C@H](OCCNC(=N)N)[C@]12C
1

Let us now turn to C[C@H](CCCN(C)Cc1ccccc1)[C@H]1CC[C@H]2[C@@H]3[C@H](OCCCNC(=N)N)C[C@@H]4C[C@H](OCCCNC(=N)N)CC[C@]4(C)[C@H]3C[C@H](OCCCNC(=N)N)[C@]12C
1.5

----------
# Tested on: E. coli (ATCC 10798)
# experimentNotes: Sensitization to erythromycin (concentration lowering the MIC of erythromycin), E. coli (ATCC 10798)
# Format: cell-based, Escherichia coli
# testContext: Table 9; Escherichia coli (ATCC 10798)
Label rule met when (b) MBC with 1 μg/mL erythromycin >= 20 µg/mL; otherwise rule not met.

CCCOCCC[C@@H](C)[C@H]1CC[C@H]2[C@@H]3[C@H](OCCCN)C[C@@H]4C[C@H](OCCCN)CC[C@]4(C)[C@H]3C[C@H](OCCCN)[C@]12C [Compound 112]    rule not met

API: above_or_equal(metric=(b) MBC with 1 μg/mL erythromycin, cutoff=20 µg/mL) for item CCCCCOCCC[C@@H](C)[C@H]1CC[C@H]2[C@@H]3[C@H](OCCCN)C[C@@H]4C[C@H](OCCCN)CC[C@]4(C)[C@H]3C[C@H](OCCCN)[C@]12C [Compound 113]
rule not met

Let us now turn to CCCCCCCCOCCC[C@@H](C)[C@H]1CC[C@H]2[C@@H]3[C@H](OCCCN)C[C@@H]4C[C@H](OCCCN)CC[C@]4(C)[C@H]3C[C@H](OCCCN)[C@]12C [Compound 114]
rule not met

Let us now turn to C[C@H](CCCO)[C@H]1CC[C@H]2[C@@H]3[C@H](OCCCN)C[C@@H]4C[C@H](OCCCN)CC[C@]4(C)[C@H]3C[C@H](OCCCN)[C@]12C [Compound 110]
rule met

Let us now turn to C[C@]12CC[C@@H](OCCCN)C[C@H]1C[C@@H](OCCCN)[C@@H]1[C@@H]2C[C@H](OCCCN)[C@]2(C)[C@@H](O)CC[C@@H]12 [Compound 106]
rule met

Let us now turn to CC(O)[C@H]1CC[C@H]2[C@@H]3[C@H](OCCCN)C[C@@H]4C[C@H](OCCCN)CC[C@]4(C)[C@H]3C[C@H](OCCCN)[C@]12C (stereo partly shown) [Compound 11]
rule met

----------
Each entry below carries its reported log10 of MIC.
# System: Pseudomonas aeruginosa (ATCC 27853)
# experimentNotes: MIC and MBC measurement with Pseudomonas aeruginosa (ATCC 27853)
# Assay type: cell-based
# testContext: Table 10; Pseudomonas aeruginosa ATCC 27853
Base-10 log of MIC, unit µg/mL.

What value of measured log10 of MIC is listed for CCCCCCCCNCCC[C@@H](C)[C@H]1CC[C@H]2[C@@H]3[C@H](OCCCNC(=N)N)C[C@@H]4C[C@H](OCCCNC(=N)N)CC[C@]4(C)[C@H]3C[C@H](OCCCNC(=N)N)[C@]12C [Compound 134] ?
0.30

Let us now turn to CCCOCCC[C@@H](C)[C@H]1CC[C@H]2[C@@H]3[C@H](OCCCN)C[C@@H]4C[C@H](OCCCN)CC[C@]4(C)[C@H]3C[C@H](OCCCN)[C@]12C [Compound 112]
0.66

Let us now turn to C[C@]12CC[C@@H](OCCCN)C[C@H]1C[C@@H](OCCCN)[C@@H]1[C@@H]2C[C@H](OCCCN)[C@]2(C)[C@@H](O)CC[C@@H]12 [Compound 106]
1.93

Let us now turn to C[C@H](CCCN(C)Cc1ccccc1)[C@H]1CC[C@H]2[C@@H]3[C@H](OCCN)C[C@@H]4C[C@H](OCCN)CC[C@]4(C)[C@H]3C[C@H](OCCN)[C@]12C [Compound 1]
1.41

Let us now turn to C[C@H](CCCN(C)Cc1ccccc1)[C@H]1CC[C@H]2[C@@H]3[C@H](OCCCNC(=N)N)C[C@@H]4C[C@H](OCCCNC(=N)N)CC[C@]4(C)[C@H]3C[C@H](OCCCNC(=N)N)[C@]12C [Compound 5]
0.77

Let us now turn to CCCCCCCCNCCC[C@@H](C)[C@H]1CC[C@H]2[C@@H]3[C@H](OCCCN)C[C@@H]4C[C@H](OCCCN)CC[C@]4(C)[C@H]3C[C@H](OCCCN)[C@]12C [Compound 133]
0.30

Let us now turn to C[C@H](CCCN(C)Cc1ccccc1)[C@H]1CC[C@H]2[C@@H]3[C@H](OCCCN)C[C@@H]4C[C@H](OCCCN)CC[C@]4(C)[C@H]3C[C@H](OCCCN)[C@]12C [Compound 2]
1.04

----------
Each entry below carries its reported MHC.
The reply should contain only the number, in µg/mL.

C[C@H](CCCN(C)Cc1ccccc1)[C@H]1CC[C@H]2[C@@H]3[C@H](OCCCN)C[C@@H]4C[C@H](OCCCN)CC[C@]4(C)[C@H]3C[C@H](OCCCN)[C@]12C [Compound 2]    58

What value of measured MHC is listed for C[C@H](CCCO)[C@H]1CC[C@H]2[C@@H]3[C@H](OCCCN)C[C@@H]4C[C@H](OCCCN)CC[C@]4(C)[C@H]3C[C@H](OCCCN)[C@]12C [Compound 10] ?
100

Let us now turn to CCCCCCCCNCCC[C@@H](C)[C@H]1CC[C@H]2[C@@H]3[C@H](OCCCNC(=N)N)C[C@@H]4C[C@H](OCCCNC(=N)N)CC[C@]4(C)[C@H]3C[C@H](OCCCNC(=N)N)[C@]12C [Compound 134]
9.0

----------
Each entry below carries its reported MHC.
# Experimental: Minimum inhibition concentrations (MIC) and minimum hemolytic concentrations (MHC) were measured as described in Li et al., Antimicrob. Agents. Chemother., 1999, 43, 1347.
The reply should contain only the number, in µg/mL.

# count of solved cases: 3
CCCCCCCCNCCC[C@@H](C)[C@H]1CC[C@H]2[C@@H]3[C@H](OCCCN)C[C@@H]4C[C@H](OCCCN)CC[C@]4(C)[C@H]3C[C@H](OCCCN)[C@]12C    29
C[C@H](CCCN(C)Cc1ccccc1)[C@H]1CC[C@H]2[C@@H]3[C@H](OCCCNC(=N)N)C[C@@H]4C[C@H](OCCCNC(=N)N)CC[C@]4(C)[C@H]3C[C@H](OCCCNC(=N)N)[C@]12C    26
C[C@H](CCCN(C)Cc1ccccc1)[C@H]1CC[C@H]2[C@@H]3[C@H](OCCN)C[C@@H]4C[C@H](OCCN)CC[C@]4(C)[C@H]3C[C@H](OCCN)[C@]12C    78

Attention now shifts to the item below.
What value of measured MHC is listed for CCCOCCC[C@@H](C)[C@H]1CC[C@H]2[C@@H]3[C@H](OCCCN)C[C@@H]4C[C@H](OCCCN)CC[C@]4(C)[C@H]3C[C@H](OCCCN)[C@]12C ?
5.9

----------
# System: E. coli (ATCC 10798)
# experimentNotes: Sensitization to novobiocin (concentration lowering the MIC of novobiocin), E. coli (ATCC 10798)
# Type: cell-based, Escherichia coli
# testContext: Table 9; Escherichia coli (ATCC 10798)
Each entry below carries its reported FIC values with novobiocin.

What value of measured FIC values with novobiocin is listed for C[C@]12CC[C@@H](OCCCN)C[C@H]1C[C@@H](OCCCN)[C@@H]1[C@@H]2C[C@H](OCCCN)[C@]2(C)[C@@H](O)CC[C@@H]12 [Compound 106] ?
0.36

Let us now turn to CCCCCOCCC[C@@H](C)[C@H]1CC[C@H]2[C@@H]3[C@H](OCCCN)C[C@@H]4C[C@H](OCCCN)CC[C@]4(C)[C@H]3C[C@H](OCCCN)[C@]12C [Compound 113]
0.27

Let us now turn to CCCOCCC[C@@H](C)[C@H]1CC[C@H]2[C@@H]3[C@H](OCCCN)C[C@@H]4C[C@H](OCCCN)CC[C@]4(C)[C@H]3C[C@H](OCCCN)[C@]12C [Compound 112]
0.085
